In this section we review reported pEC50 values for a set of compounds.
# measurementTarget: Melanocortin receptor 4 (Homo sapiens, UniProt P32245)
# Sequence (P32245 whole entry): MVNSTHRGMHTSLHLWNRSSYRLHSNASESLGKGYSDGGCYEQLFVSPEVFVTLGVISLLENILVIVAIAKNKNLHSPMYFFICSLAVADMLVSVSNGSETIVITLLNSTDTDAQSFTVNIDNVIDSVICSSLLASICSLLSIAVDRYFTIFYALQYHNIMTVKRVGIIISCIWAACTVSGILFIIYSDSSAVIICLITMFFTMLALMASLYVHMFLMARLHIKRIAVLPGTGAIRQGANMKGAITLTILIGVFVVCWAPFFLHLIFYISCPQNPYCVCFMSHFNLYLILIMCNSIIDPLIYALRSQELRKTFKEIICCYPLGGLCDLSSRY
# protocolText: Agonist activity at human MC4R expressed in HEK293 cells assessed as induction of intracellular cAMP accumulation after 3 mins
# Assay type: functional, cell-based
# measurementConditions: read-out: EC50
Bridge positions count the residues as written; N and C are the ends. Square brackets hold non-standard residues; d marks the D form. Peptide text beside a SMILES is read from it. d2Nal = N[C@H](Cc1ccc2ccccc2c1)C(=O)O; Aib = CC(C)(N)C(=O)O
Scale explanation: pEC50 corresponds to minus log10 of a concentration expressed in moles per litre.

Worked set:
compound=N=C(N)NCCC[C@@H]1NC(=O)[C@@H](Cc2ccccc2)NC(=O)[C@H](Cc2c[nH]cn2)NC(=O)C2(CCCCC2)NC(=O)CC[C@@H](C(N)=O)NC(=O)[C@H](Cc2c[nH]c3ccccc23)NC1=O measurementtarget="Melanocortin receptor 4 (Homo sapiens, UniProt P32245)" recordedmetric=pEC50 recordedresult=6.92
compound=N=C(N)NCCC[C@@H]1NC(=O)[C@@H](Cc2ccc3ccccc3c2)NC(=O)[C@H](Cc2c[nH]cn2)NC(=O)C2(CCCC2)NC(=O)C[C@@H](C(N)=O)NC(=O)[C@H](Cc2c[nH]c3ccccc23)NC1=O measurementtarget="Melanocortin receptor 4 (Homo sapiens, UniProt P32245)" recordedmetric=pEC50 recordedresult=6.96
compound="CC1(C)NC(=O)C[C@@H](C(N)=O)NC(=O)[C@H](Cc2c[nH]c3ccccc23)NC(=O)[C@H](CCCNC(=N)N)NC(=O)[C@@H](Cc2ccccc2)NC(=O)[C@H](Cc2c[nH]cn2)NC1=O ([Aib]H[dF]RWD-NH2; lactam N-6)" measurementtarget="Melanocortin receptor 4 (Homo sapiens, UniProt P32245)" recordedmetric=pEC50 recordedresult=8.17
compound=N=C(N)NCCC[C@@H]1NC(=O)[C@@H](Cc2ccc3ccccc3c2)NC(=O)[C@H](Cc2c[nH]cn2)NC(=O)C2(CCC2)NC(=O)C[C@@H](C(N)=O)NC(=O)[C@H](Cc2c[nH]c3ccccc23)NC1=O measurementtarget="Melanocortin receptor 4 (Homo sapiens, UniProt P32245)" recordedmetric=pEC50 recordedresult=6.57
compound=N=C(N)NCCC[C@@H]1NC(=O)[C@@H](Cc2ccccc2)NC(=O)[C@H](Cc2c[nH]cn2)NC(=O)C2(CCC2)NC(=O)C[C@@H](C(N)=O)NC(=O)[C@H](Cc2c[nH]c3ccccc23)NC1=O measurementtarget="Melanocortin receptor 4 (Homo sapiens, UniProt P32245)" recordedmetric=pEC50 recordedresult=6.14

Read the next record carefully.
Field request: pEC50 | item: CC1(C)NC(=O)C[C@@H](C(N)=O)NC(=O)[C@H](Cc2c[nH]c3ccccc23)NC(=O)[C@H](CCCNC(=N)N)NC(=O)[C@@H](Cc2ccc3ccccc3c2)NC(=O)[C@H](Cc2c[nH]cn2)NC1=O ([Aib]H[d2Nal]RWD-NH2; lactam N-6)
8.17

Cited source for all entries: ChEMBL document CHEMBL4177763
